System: PBMC (polyclonal gluten-specific T cells) of paediatric and adult CD patients
Test Name: IFN-γ ELISpot of PBMC after 3 day oral wheat challenge (SFU, % of maximal peptide response, dominance scores, EC50; Examples 5-6)
Type: cell-based, human
Protocol Conditions: patient P, 11-17 yrs; after oral wheat challenge; cut-off 21.6 SFU
Dear colleague, classification is by IFN-γ ELISpot response, with ranges listed here: label 0 (below 10 SFU), label 1 (10 SFU to below 20 SFU), label 2 (20 SFU or more)

Req: Form field 'band' for PQQPQQSFPQQQQPA
Resp: label 0

Req: Form field 'band' for PFPQQPQQPFPQP
Resp: label 1

Req: Form field 'band' for GLERPWQEQPLPPQ
Resp: label 0

Req: Form field 'band' for QPFPQPEQPFPWQ [Peptide W03, contains DQ2.5-glia-w1 and w2]
Resp: label 2

Req: Form field 'band' for GIIQPQQPAQL
Resp: label 0

Req: Form field 'band' for LQPFPQPQLPYPQP
Resp: label 2

Req: Form field 'band' for YEVIRSLVLRTLPN
Resp: label 2
